- System: 565232-114-T-J1-PDC complex spheroid viability
- Experiment notes: Anticancer human tumor 565232-114-T-J1-PDC patient-derived bladder carcinoma cell line growth inhibition [CLK]; active means viability on the fitted dose curve at most 10% of control; inactive means the rest
- Measurement context: second compound 10 µM; first compound 3.16 µM
I would appreciate it if you answered using one of these outcomes: active, inactive

{"Compound": "CC(CO)NC(=O)c1cc(-c2ccc(Cl)cc2)nn(-c2cnn(C)c2)c1=O (stereo unspecified) + CNC(=O)c1ccc(Nc2nc(OC3CCCC3)c3c(-c4ccc5nc(C)oc5c4)c[nH]c3n2)c(OC)c1", "Assigned category": "inactive"}
{"Compound": "CC1COCCN1c1cc(C2(S(C)(=N)=O)CC2)nc(-c2ccnc3[nH]ccc23)n1 (stereo unspecified) + CNC(=O)c1ccc(Nc2nc(OC3CCCC3)c3c(-c4ccc5nc(C)oc5c4)c[nH]c3n2)c(OC)c1", "Assigned category": "active"}

Enquiry: Any idea what this test logged for O=c1[nH]cc(F)c(=O)[nH]1 + CNC(=O)c1ccc(Nc2nc(OC3CCCC3)c3c(-c4ccc5nc(C)oc5c4)c[nH]c3n2)c(OC)c1 ?
Return: inactive

Enquiry: Further, for C#Cc1c(F)ccc2cc(O)cc(-c3ncc4c(N5CC6CCC(C5)N6)nc(OCC56CCCN5CC(F)C6)nc4c3F)c12 (stereo unspecified) + CN1CCN(c2cc(C(=O)Nc3cc4cc(-c5cnn(C)c5)ccc4cn3)ccn2)CC1 ?
Return: active

Enquiry: Further, for Nc1ccn(C2OC(CO)C(O)C2(F)F)c(=O)n1 (stereo unspecified) + CNC(=O)c1ccc(Nc2nc(OC3CCCC3)c3c(-c4ccc5nc(C)oc5c4)c[nH]c3n2)c(OC)c1 ?
Return: active

Enquiry: Further, for COc1cccc2c1C(=O)c1c(O)c3c(c(O)c1C2=O)CC(O)(C(=O)CO)CC3OC1CC(N)C(O)C(C)O1 (stereo unspecified) + CN1CCN(c2cc(C(=O)Nc3cc4cc(-c5cnn(C)c5)ccc4cn3)ccn2)CC1 ?
Return: active

----------
- Test system: 565232-114-T-J1-PDC complex spheroid viability
- Experiment notes: Anticancer human tumor 565232-114-T-J1-PDC cell line growth inhibition [CLK];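 further: spheroids exposed to compounds for 7 days before readout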;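 on viability, T/C: 100% = DMSO vehicle wells with luminescence normalized to vehicle control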
- Measurement context: second compound 0.0316 µM; first compound 0.003 µM; stronger effect = lower value
Entries and their measured viability, T/C follow.
Note: unit % is implicit; provide only the numeric part.

Some entries whose results are on file:
{"Compound": "C=CC(=O)Nc1cc(Nc2nccc(-c3cn(C)c4ccccc34)n2)c(OC)cc1N(C)CCN(C)C + CN1CCN(c2cc(C(=O)Nc3cc4cc(-c5cnn(C)c5)ccc4cn3)ccn2)CC1", "Subject of test": "565232-114-T-J1-PDC complex spheroid viability", "Display unit": "%", "viability, T/C": 95.3}
{"Compound": "CC(C)CC(NC(=O)C(Cc1ccccc1)NC(=O)c1cnccn1)B(O)O (centres undefined) + CN1CCN(c2cc(C(=O)Nc3cc4cc(-c5cnn(C)c5)ccc4cn3)ccn2)CC1", "Subject of test": "565232-114-T-J1-PDC complex spheroid viability", "Display unit": "%", "viability, T/C": 109}
{"Compound": "CC(C)CC(NC(=O)C(Cc1ccccc1)NC(=O)c1cnccn1)B(O)O (centres undefined) + CNC(=O)c1ccc(Nc2nc(OC3CCCC3)c3c(-c4ccc5nc(C)oc5c4)c[nH]c3n2)c(OC)c1", "Subject of test": "565232-114-T-J1-PDC complex spheroid viability", "Display unit": "%", "viability, T/C": 80.1}

# input for lookup
Enquiry: Requested read-out: viability, T/C. Entry: C=CC(=O)Nc1cc(Nc2nccc(-c3cn(C)c4ccccc34)n2)c(OC)cc1N(C)CCN(C)C + CNC(=O)c1ccc(Nc2nc(OC3CCCC3)c3c(-c4ccc5nc(C)oc5c4)c[nH]c3n2)c(OC)c1
Return: 92.5

----------
- Test system: 565232-114-T-J1-PDC complex spheroid viability
- Experiment notes: Anticancer human tumor 565232-114-T-J1-PDC cell line growth inhibition [CLK];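 further: spheroids exposed to compounds for 7 days before readout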
- Measurement context: curve of first compound; second compound 0.0316 µM
Measured quantity: pIC50
Schema: pIC50 number; meaning minus log10 of the concentration expressed in molar units.

Enquiry: Requested read-out: pIC50. Entry: CC1(C)CCC(CN2CCN(c3ccc(C(=O)NS(=O)(=O)c4ccc(NCC5CCOCC5)c([N+](=O)[O-])c4)c(Oc4cnc5[nH]ccc5c4)c3)CC2)=C(c2ccc(Cl)cc2)C1 + CNC(=O)c1ccc(Nc2nc(OC3CCCC3)c3c(-c4ccc5nc(C)oc5c4)c[nH]c3n2)c(OC)c1
Return: 5.06

Enquiry: Further, for Nc1ccn(C2OC(CO)C(O)C2(F)F)c(=O)n1 (stereo unspecified) + CN1CCN(c2cc(C(=O)Nc3cc4cc(-c5cnn(C)c5)ccc4cn3)ccn2)CC1 ?
Return: 6.72

Enquiry: Further, for COc1cccc2c1C(=O)c1c(O)c3c(c(O)c1C2=O)CC(O)(C(=O)CO)CC3OC1CC(N)C(O)C(C)O1 (stereo unspecified) + CN1CCN(c2cc(C(=O)Nc3cc4cc(-c5cnn(C)c5)ccc4cn3)ccn2)CC1 ?
Return: 6.51

----------
- Test system: 565232-114-T-J1-PDC complex spheroid viability
- Experiment notes: Anticancer human tumor 565232-114-T-J1-PDC cell line growth inhibition [CLK];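 further: spheroids exposed to compounds for 7 days before readout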;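 on viability, T/C: 100% = DMSO vehicle wells with luminescence normalized to vehicle control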
- Measurement context: second compound 0.316 µM; first compound 0.000949 µM; stronger effect = lower value
Measured quantity: viability, T/C (%)
Note: unit % is implicit; provide only the numeric part.

Some entries whose results are on file:
{"Compound": "C=CC(=O)Nc1cc(Nc2nccc(-c3cn(C)c4ccccc34)n2)c(OC)cc1N(C)CCN(C)C + CN1CCN(c2cc(C(=O)Nc3cc4cc(-c5cnn(C)c5)ccc4cn3)ccn2)CC1", "Subject of test": "565232-114-T-J1-PDC complex spheroid viability", "viability, T/C (%)": 14.9}
{"Compound": "CC(C)CC(NC(=O)C(Cc1ccccc1)NC(=O)c1cnccn1)B(O)O (centres undefined) + CNC(=O)c1ccc(Nc2nc(OC3CCCC3)c3c(-c4ccc5nc(C)oc5c4)c[nH]c3n2)c(OC)c1", "Subject of test": "565232-114-T-J1-PDC complex spheroid viability", "viability, T/C (%)": 31.1}
{"Compound": "CC(C)CC(NC(=O)C(Cc1ccccc1)NC(=O)c1cnccn1)B(O)O (centres undefined) + CN1CCN(c2cc(C(=O)Nc3cc4cc(-c5cnn(C)c5)ccc4cn3)ccn2)CC1", "Subject of test": "565232-114-T-J1-PDC complex spheroid viability", "viability, T/C (%)": 23.8}

# input for lookup
Enquiry: Requested read-out: viability, T/C. Entry: C=CC(=O)Nc1cc(Nc2nccc(-c3cn(C)c4ccccc34)n2)c(OC)cc1N(C)CCN(C)C + CNC(=O)c1ccc(Nc2nc(OC3CCCC3)c3c(-c4ccc5nc(C)oc5c4)c[nH]c3n2)c(OC)c1
Return: 28.5

----------
- System: 565232-114-T-J1-PDC complex spheroid viability
- Experiment notes: Anticancer human tumor 565232-114-T-J1-PDC cell line growth inhibition [CLK];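 further: spheroids exposed to compounds for 7 days before readout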;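 on viability, T/C: 100% = DMSO vehicle wells with luminescence normalized to vehicle control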
- Measurement context: second compound 10 µM; first compound 0.000949 µM; stronger effect = lower value
Measured quantity: viability, T/C (%)
Note: unit % is implicit; provide only the numeric part.

Some entries whose results are on file:
{"Molecule": "C=CC(=O)Nc1cc(Nc2nccc(-c3cn(C)c4ccccc34)n2)c(OC)cc1N(C)CCN(C)C + CNC(=O)c1ccc(Nc2nc(OC3CCCC3)c3c(-c4ccc5nc(C)oc5c4)c[nH]c3n2)c(OC)c1", "Data value": 19.9}
{"Molecule": "CC(C)CC(NC(=O)C(Cc1ccccc1)NC(=O)c1cnccn1)B(O)O (centres undefined) + CN1CCN(c2cc(C(=O)Nc3cc4cc(-c5cnn(C)c5)ccc4cn3)ccn2)CC1", "Data value": 0.1}
{"Molecule": "CC(C)CC(NC(=O)C(Cc1ccccc1)NC(=O)c1cnccn1)B(O)O (centres undefined) + CNC(=O)c1ccc(Nc2nc(OC3CCCC3)c3c(-c4ccc5nc(C)oc5c4)c[nH]c3n2)c(OC)c1", "Data value": 19.5}

# input for lookup
Enquiry: Requested read-out: viability, T/C. Entry: C=CC(=O)Nc1cc(Nc2nccc(-c3cn(C)c4ccccc34)n2)c(OC)cc1N(C)CCN(C)C + CN1CCN(c2cc(C(=O)Nc3cc4cc(-c5cnn(C)c5)ccc4cn3)ccn2)CC1
Return: 0.23

----------
Entries and their measured viability, T/C follow.
- System: 565232-114-T-J1-PDC complex spheroid viability
- Experiment notes: Anticancer human tumor 565232-114-T-J1-PDC cell line growth inhibition [CLK];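 further: spheroids exposed to compounds for 7 days before readout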;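 on viability, T/C: 100% = DMSO vehicle wells with luminescence normalized to vehicle control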
- Measurement context: second compound 0.0316 µM; first compound 3.16 µM; stronger effect = lower value
Note: unit % is implicit; provide only the numeric part.

Some entries whose results are on file:
{"Molecule": "COc1ccc([C@@H](O)c2cc(-c3ncnc4cc(N5CCOCC5)ccc34)c(F)cc2Cl)nn1 + CN1CCN(c2cc(C(=O)Nc3cc4cc(-c5cnn(C)c5)ccc4cn3)ccn2)CC1", "Data value": 96.9}
{"Molecule": "CC1(C)CCC(CN2CCN(c3ccc(C(=O)NS(=O)(=O)c4ccc(NCC5CCOCC5)c([N+](=O)[O-])c4)c(Oc4cnc5[nH]ccc5c4)c3)CC2)=C(c2ccc(Cl)cc2)C1 + CN1CCN(c2cc(C(=O)Nc3cc4cc(-c5cnn(C)c5)ccc4cn3)ccn2)CC1", "Data value": 79.5}
{"Molecule": "Nc1ccn(C2OC(CO)C(O)C2(F)F)c(=O)n1 (configuration not stated) + CNC(=O)c1ccc(Nc2nc(OC3CCCC3)c3c(-c4ccc5nc(C)oc5c4)c[nH]c3n2)c(OC)c1", "Data value": 11.2}
{"Molecule": "CC1COCCN1c1cc(C2(S(C)(=N)=O)CC2)nc(-c2ccnc3[nH]ccc23)n1 (configuration not stated) + CNC(=O)c1ccc(Nc2nc(OC3CCCC3)c3c(-c4ccc5nc(C)oc5c4)c[nH]c3n2)c(OC)c1", "Data value": 103}
{"Molecule": "CC(CO)NC(=O)c1cc(-c2ccc(Cl)cc2)nn(-c2cnn(C)c2)c1=O (configuration not stated) + CN1CCN(c2cc(C(=O)Nc3cc4cc(-c5cnn(C)c5)ccc4cn3)ccn2)CC1", "Data value": 93.7}

Enquiry: Requested read-out: viability, T/C. Entry: COc1cccc2c1C(=O)c1c(O)c3c(c(O)c1C2=O)CC(O)(C(=O)CO)CC3OC1CC(N)C(O)C(C)O1 (configuration not stated) + CNC(=O)c1ccc(Nc2nc(OC3CCCC3)c3c(-c4ccc5nc(C)oc5c4)c[nH]c3n2)c(OC)c1
Return: 0.24

Enquiry: Further, for CC1COCCN1c1cc(C2(S(C)(=N)=O)CC2)nc(-c2ccnc3[nH]ccc23)n1 (configuration not stated) + CN1CCN(c2cc(C(=O)Nc3cc4cc(-c5cnn(C)c5)ccc4cn3)ccn2)CC1 ?
Return: 101

Source of measurements: PubChem BioAssay AID2060612
